test: NCI Yeast Anticancer Drug Screen. Data for the bub3 strain (AID 167); settings: S. cerevisiae bub3 mutant strain, at 50.0 µM
About 79,000 compounds went through this panel and 15% of them were active in at least one assay; those are over-represented in the sample as a whole. The source made the active and inactive calls. No stated cut-off is given here; in the data, active means growth inhibition above about 70%; inactive means the rest.
Possible outcomes: TRUE for active, FALSE for inactive

[[record]]
molecule = "Cc1cc2n(n1)C(=O)CC(=O)C2"
category = "FALSE"

[[record]]
molecule = "Cc1cc(N)c(N=Cc2ccccc2[N+](=O)[O-])cc1C"
category = "FALSE"

[[record]]
molecule = "Cc1cc2c(C)[nH]nc2c(C(=O)O)c1C"
category = "FALSE"

[[record]]
molecule = "CC(C)(C)NC1=C([N+](=O)[O-])CCCC1"
category = "FALSE"

[[record]]
molecule = "COc1cc(-c2c(C)c(C)nc(OC)c2C#N)cc(OC)c1OC"
category = "FALSE"

[[record]]
molecule = "NC(CCCCO)C(=O)O (stereo unspecified)"
category = "FALSE"

[[record]]
molecule = "N#Cc1c(-c2ccccc2)c(-c2ccccc2)cc2c(=O)c3ccc(Cl)cc3[nH]c12"
category = "FALSE"

[[record]]
molecule = "CC(=O)OC1CCC2C(C)(CCC3C2(C)CCC2(C)C4CC(C)(C)CCC4(C)CCC32C)C1C (stereo unspecified)"
category = "FALSE"

[[record]]
molecule = "O=C(n1[nH]c(=O)n(-c2ccc([N+](=O)[O-])cc2)c1=O)C(Cl)(Cl)Cl"
category = "FALSE"

[[record]]
molecule = "O=[N+]([O-])c1cccc(S(=O)(=O)SSS(=O)(=O)c2cccc([N+](=O)[O-])c2)c1"
category = "FALSE"

[[record]]
molecule = "CCc1cc2c(cc1C(=O)/C=C\\c1cccc3ccccc13)C(C)(C)CCC2(C)C"
category = "FALSE"

[[record]]
molecule = "COc1ccc(C(=O)/C=c2/c(CC(=O)c3ccc(OC)cc3)nc3nnc(N)n23)cc1"
category = "FALSE"

[[record]]
molecule = "CC(=O)c1ccccc1C"
category = "FALSE"

[[record]]
molecule = "CC1CCC(C(C)C)C2(C1)OC(CCl)CS2 (stereo unspecified)"
category = "FALSE"

[[record]]
molecule = "CC(=O)NC1C(SC(=O)NCCCl)OC(COC(C)=O)C(OC(C)=O)C1OC(C)=O (stereo unspecified)"
category = "FALSE"

[[record]]
molecule = "COC(=O)C12OCC34C(CC5C(C)=C(O)C(=O)CC5(C)C3C(O)C1O)OC(=O)C(OC(C)=O)C24 (stereo unspecified)"
category = "TRUE"

[[record]]
molecule = "CCCCCCCCCCCCCCCCCCCC/C=C/C1CC(=O)OC1=O (stereo unspecified)"
category = "FALSE"

[[record]]
molecule = "CCCOC1CC(C)C(O)C(C)C1 (stereo unspecified)"
category = "FALSE"

[[record]]
molecule = "CCCCCCCCCCCCCCCCC(CCCCCCCCCCCCCCCC)c1ccccc1"
category = "FALSE"

[[record]]
molecule = "C/C(=N\\NC(=S)Nc1ccc(S(=O)(=O)O)cc1)c1ccccn1"
category = "FALSE"

[[record]]
molecule = "CCOC(=O)COC(=O)C1C(C(N)=O)N(CC(=O)OCC)CCN1CC(=O)OCC (stereo unspecified)"
category = "FALSE"

[[record]]
molecule = "CC1=C(c2ccco2)C(c2ccco2)OC1=O (stereo unspecified)"
category = "FALSE"

[[record]]
molecule = "CC(C)N(CCSC(=O)N1c2ccccc2Sc2cccnc21)C(C)C"
category = "FALSE"

[[record]]
molecule = "CCCOc1ccc(C(=O)C(=O)c2ccccc2)cc1"
category = "FALSE"

[[record]]
molecule = "CCCCCCCCCc1ccc(OCCOC(=O)OCCOc2ccc(CCCCCCCCC)cc2)cc1"
category = "FALSE"

[[record]]
molecule = "CCCNC(=O)/C=C/C(=O)NCCC"
category = "FALSE"

[[record]]
molecule = "COc1ccc(-c2c3c([nH]c(=S)c2C#N)CCC3)cc1"
category = "FALSE"

[[record]]
molecule = "CC(C)C(=O)Oc1cc2c(=O)oc3c(OC(=O)C(C)C)c(OC(=O)C(C)C)cc4c(=O)oc(c1OC(=O)C(C)C)c2c34"
category = "FALSE"

[[record]]
molecule = "CCOC(=O)C(=CNc1ccc2c(c1)OCO2)C(=O)OCC"
category = "FALSE"

[[record]]
molecule = "CC1(C)N=C(/C=N/O)C(C)(C)N1O"
category = "FALSE"

[[record]]
molecule = "COc1cc(C(=O)C/C(CCC(=O)Nc2ccccc2[N+](=O)[O-])=N\\NC(=O)C(N)=O)ccc1O"
category = "FALSE"

[[record]]
molecule = "C=CCCCCCCCCC(=O)NCc1nc2ccccc2[nH]1"
category = "FALSE"

[[record]]
molecule = "CSS(=O)(=O)C(c1ccccc1)c1ccccc1"
category = "FALSE"

[[record]]
molecule = "COc1ccc2c(CCn3ccccc3=O)cccc2c1"
category = "FALSE"

[[record]]
molecule = "N=C1N=Nc2nc(C(C(=O)c3cccc4ccccc34)c3nc4n(c3O)C(=N)N=N4)c(O)n21 (stereo unspecified)"
category = "FALSE"

[[record]]
molecule = "O=S(O)CCCSSc1ccccc1"
category = "FALSE"

[[record]]
molecule = "Cc1nc2sc(CCl)nn2c(=O)c1Cl"
category = "FALSE"

[[record]]
molecule = "CCOc1ccc(NC(=O)C(=O)CC(=O)c2sc(NNC(C)=O)nc2C)cc1"
category = "FALSE"

[[record]]
molecule = "O=C(O)CC1CCC(CC(=O)O)CC1 (stereo unspecified)"
category = "FALSE"

[[record]]
molecule = "ClCCOC(CCl)OCCCl"
category = "FALSE"

[[record]]
molecule = "CCOC(=O)c1cccc(NC(=O)CCl)c1"
category = "FALSE"

[[record]]
molecule = "CC(C)(C#N)OC(=O)Nc1c(Cl)cccc1Cl"
category = "FALSE"

[[record]]
molecule = "O=C(O)c1ccc(O)cc1O"
category = "FALSE"

[[record]]
molecule = "C/C=C/C=N/N(C(=O)c1cc([N+](=O)[O-])cc([N+](=O)[O-])c1)C1=NC(c2ccccc2)C(c2ccccc2)=NN1 (stereo unspecified)"
category = "FALSE"

[[record]]
molecule = "COc1ccc2c(c1)CC[C@@H]1[C@@H]2CC[C@@]2(C)[C@H]1C[C@@](C)(O)[C@H]2O"
category = "FALSE"

[[record]]
molecule = "COc1ccc(CCCNC(=O)c2cc(OC)c(OC)cc2CCO)cc1OC"
category = "FALSE"


Cited source for all entries: PubChem BioAssay (NCI)
